# target-under-test: Adenosine receptor A1 (Rattus norvegicus)
# Sequence (P25099 whole entry): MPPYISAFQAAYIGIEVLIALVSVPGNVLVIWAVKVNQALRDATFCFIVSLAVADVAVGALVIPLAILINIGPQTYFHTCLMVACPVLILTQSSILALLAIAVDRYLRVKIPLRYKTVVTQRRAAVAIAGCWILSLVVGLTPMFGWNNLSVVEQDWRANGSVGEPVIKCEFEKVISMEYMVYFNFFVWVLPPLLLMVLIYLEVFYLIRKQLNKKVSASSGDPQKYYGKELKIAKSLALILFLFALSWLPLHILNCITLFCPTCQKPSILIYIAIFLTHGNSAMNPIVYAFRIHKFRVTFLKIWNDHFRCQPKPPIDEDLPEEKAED
# test-description: Displacement of [3H]DPCPX from adenosine A1 receptor in rat brain cortex membrane in presence of 0.5 mM GTP
# Type: cell membranes
measured-attribute: pKi
Give bare numbers, as −log10 of the molar value.

Data request: // fetch pKi for O=c1cc(-c2ccc(O)c(O)c2)oc2cc(O)cc(O)c12 [LUTEOLIN] ; system: Adenosine receptor A1 (Rattus norvegicus)
Data returned: 5.81

###

# target-under-test: Adenosine receptor A1 (Rattus norvegicus, UniProt P25099)
# test-description: Displacement of [3H]DPCPX from adenosine A1 receptor in rat brain cortex membrane
# Type: cell membranes
pKi: −log10 of the molar value.
measured-attribute: pKi

Known pKi results, listed for orientation:
compound	target-under-test	pKi
O=c1cc(-c2ccc(O)c(O)c2)oc2cc(O)cc(O)c12 [LUTEOLIN]	Adenosine receptor A1 (Rattus norvegicus, UniProt P25099)	5.78
CC(=O)[C@@H]1c2cc(O)cc(O)c2C(=O)C[C@@]1(C)O (relative stereo)	Adenosine receptor A1 (Rattus norvegicus, UniProt P25099)	< 4.30
CC(=O)Cc1cc(O)cc2oc(C)cc(=O)c12	Adenosine receptor A1 (Rattus norvegicus, UniProt P25099)	< 4.30
CC(=O)Cc1cc(O)cc2oc(CO)cc(=O)c12	Adenosine receptor A1 (Rattus norvegicus, UniProt P25099)	< 4.30

Okay, next one:
Data request: Using the record for CC(=O)[C@@H]1c2cc(O)cc(O)c2C(=O)C[C@]1(C)O (relative stereo) , state its measured pKi.
Data returned: < 4.30
